- assaySystem: mu opiate receptor (MOR) (Rattus norvegicus, UniProt P33535)
- Construct: from tissue; host or cells: striatum (membrane preparation)
- Sequence (P33535 whole entry): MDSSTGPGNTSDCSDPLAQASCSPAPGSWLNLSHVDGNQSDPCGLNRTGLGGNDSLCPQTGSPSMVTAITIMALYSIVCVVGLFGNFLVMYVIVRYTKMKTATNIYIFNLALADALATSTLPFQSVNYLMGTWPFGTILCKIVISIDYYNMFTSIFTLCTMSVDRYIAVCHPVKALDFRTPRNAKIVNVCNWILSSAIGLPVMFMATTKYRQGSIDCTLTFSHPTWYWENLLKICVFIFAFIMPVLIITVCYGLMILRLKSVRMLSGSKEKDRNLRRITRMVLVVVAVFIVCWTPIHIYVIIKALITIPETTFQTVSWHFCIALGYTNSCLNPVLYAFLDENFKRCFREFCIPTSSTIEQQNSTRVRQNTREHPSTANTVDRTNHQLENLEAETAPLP
- Format: biochemical
% DAMGO + BFNA values for the compounds below.
Answer with a number only, understood to be in %.

# count of solved cases: 4
COc1ccc(C(=O)CC2c3c(cc4c(c3OC)OCO4)CC[N+]2(C)C)c(F)c1 (centres unmarked) | 41.5
COc1ccccc1C(=O)CC1c2c(cc3c(c2OC)OCO3)CC[N+]1(C)C (centres unmarked) | 211.8
COc1ccc(S(=O)(=O)N2CCOC23CCN(C(C)C)CC3)cc1 [Compound C0133M] | 152.4
O=S(=O)(c1ccc(-c2ccccc2)cc1)N1CCC2(CC1)OCCN2S(=O)(=O)c1ccc(-c2ccccc2)cc1 | 135.0

So, COc1c2c(cc3c1C(CC(=O)CCc1ccc(F)cc1)[N+](C)(C)CC3)OCO2 (centres unmarked) ? Its % DAMGO + BFNA was 69.1

So, `COc1ccc(S(=O)(=O)N2CCC3(CC2)NCCO3)cc1` ? Its % DAMGO + BFNA was 48.3

So, COc1ccc(CCC(=O)CC2c3c(cc4c(c3OC)OCO4)CC[N+]2(C)C)c(OC)c1 (centres unmarked) ? Its % DAMGO + BFNA was 632.7

So, `O=S(=O)(c1ccc(Br)cc1F)N1CCC2(CC1)OCCN2S(=O)(=O)c1ccc(Br)cc1F` ? Its % DAMGO + BFNA was 359.4

----------
- assaySystem: mu opiate receptor (MOR) (Rattus norvegicus, UniProt P33535)
- Construct: from tissue; host or cells: striatum (membrane preparation)
- Type: biochemical
- testSettings: [35S]GTPγS binding to Gαo in striatal membranes; compound 1 μM plus 1 μM β-funaltrexamine (MOR antagonist)
Concentration of FLNA-Binding Compound as Agonist 1 μM + BFNA values for the molecules below.
Answer with a number only, understood to be in %.

# count of solved cases: 2
CC1CN(CC(O)COc2ccc(Br)c(F)c2)CC(C)O1 (stereo not shown) | 50.6
CC1CCC(C(C)C)C(OCC(O)CN2CCN(C)CC2)C1 (stereo not shown) | 93.9

Item COc1ccc(OC)c(CCC(=O)CC2c3c(cc4c(c3OC)OCO4)CC[N+]2(C)C)c1 (stereo not shown) ; assay system mu opiate receptor (MOR) (Rattus norvegicus, UniProt P33535); Concentration of FLNA-Binding Compound as Agonist 1 μM + BFNA reported as 134.6

Item `Cc1cccc(S(=O)(=O)N2CCC3(CC2)OCCN3S(=O)(=O)c2cccc(C)c2)c1` ; assay system mu opiate receptor (MOR) (Rattus norvegicus, UniProt P33535); Concentration of FLNA-Binding Compound as Agonist 1 μM + BFNA reported as 76.3

----------
% DAMGO + BFNA values for the molecules below.
- assaySystem: mu opiate receptor (MOR) (Rattus norvegicus, UniProt P33535)
- Construct: from tissue; host or cells: striatum (membrane preparation)
- Type: biochemical
Answer with a number only, understood to be in %.

# count of solved cases: 3
CC1CCC(C(C)C)C(OCC(O)CN2CC(C)OC(C)C2)C1 (centres unmarked) [Compound A3333] | 136.7
COc1ccc(CC(=O)CC2c3c(cc4c(c3OC)OCO4)CC[N+]2(C)C)c(OC)c1 (centres unmarked) | 40.1
COc1ccc(NC(=O)N2CCC3(CC2)NCCO3)cc1 [Compound C0151M-2] | 233.1

So, COCOc1ccc(C(=O)CC2c3c(cc4c(c3OC)OCO4)CC[N+]2(C)C)cc1C (centres unmarked) ? Its % DAMGO + BFNA was 128.5

So, CC1CN(CC(O)COc2cccc(C(F)(F)F)c2)CC(C)O1 (centres unmarked) ? Its % DAMGO + BFNA was 286.3

So, COc1cc(C(=O)CC2c3c(cc4c(c3OC)OCO4)CC[N+]2(C)C)cc(OC)c1OC (centres unmarked) ? Its % DAMGO + BFNA was 325.8

Source: patent US10760052B2
